system_tested: Sigma non-opioid intracellular receptor 1 (Rattus norvegicus)
Sequence (Q9R0C9 whole entry): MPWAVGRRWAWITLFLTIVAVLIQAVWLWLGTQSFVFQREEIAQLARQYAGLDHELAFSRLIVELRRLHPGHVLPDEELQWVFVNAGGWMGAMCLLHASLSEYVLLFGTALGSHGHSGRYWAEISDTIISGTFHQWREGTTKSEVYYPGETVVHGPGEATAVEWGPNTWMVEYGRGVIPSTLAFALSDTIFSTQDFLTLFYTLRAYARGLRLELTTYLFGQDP
method_notes: Binding affinity for sigma-1 receptor by displacing [3H]-(+) pentazocine
Category key, based on recorded Ki: b0: < 6 nM; b1: ≥ 6 nM and < 80 nM; b2: ≥ 80 nM

compound	system_tested	category_label
c1ccc(CCN2CCCCC2)cc1	Sigma non-opioid intracellular receptor 1 (Rattus norvegicus)	b2
c1ccc(CCCN2CCN(c3ccccn3)CC2)cc1	Sigma non-opioid intracellular receptor 1 (Rattus norvegicus)	b2
c1ccc(CCN2CCN(c3ccccn3)CC2)cc1	Sigma non-opioid intracellular receptor 1 (Rattus norvegicus)	b2
CC1CCCN(CCCc2ccccc2)C1 (stereo not given)	Sigma non-opioid intracellular receptor 1 (Rattus norvegicus)	b0
CC1CCCN(CCc2ccccc2)C1 (stereo not given)	Sigma non-opioid intracellular receptor 1 (Rattus norvegicus)	b0
CC1CCN(CCCc2ccccc2)CC1	Sigma non-opioid intracellular receptor 1 (Rattus norvegicus)	b0
c1ccc(CCCN2CCc3ccccc3C2)cc1	Sigma non-opioid intracellular receptor 1 (Rattus norvegicus)	b1
CC1CCN(CCc2ccccc2)CC1	Sigma non-opioid intracellular receptor 1 (Rattus norvegicus)	b1
c1ccc(CCCN2CCCCC2)cc1	Sigma non-opioid intracellular receptor 1 (Rattus norvegicus)	b2
